assay: NCI Yeast Anticancer Drug Screen. Data for the mec2-1 strain (AID 157)
conditionDetails: S. cerevisiae mec2-1 strain, at 5.0 µM (retest, dose inferred, filed as 0.5)
Compounds without any hit were thinned out: in the full panel of roughly 79,000, 15% have a hit. Activity calls are given as the source filed them. Rule as the data show it: active = growth inhibition above about 70%; inactive = the rest.
Possible outcomes: true (1) (active), false (0) (inactive)

{"compound": "OC(Cc1cccc2ccccc12)CN1CCC(c2ccccc2)CC1 (centres undefined)", "classLabel": "false (0)"}
{"compound": "OC(c1ccccc1)(c1ccccc1)c1nccc2ccccc12", "classLabel": "false (0)"}
{"compound": "Fc1cc(F)c(F)c(S)c1F", "classLabel": "false (0)"}
{"compound": "CCCCCCCCCC(=O)N(CCC)CCC", "classLabel": "true (1)"}
{"compound": "CCN(CC)CCNc1ccc(C)c2sc3ccc(O)cc3c(=O)c12", "classLabel": "false (0)"}
{"compound": "O=C1C=CC(=Nc2cccc3c2-c2ccccc2C3=O)O1", "classLabel": "false (0)"}
{"compound": "CCN(CC)C(=S)N/N=C(\\C)c1ccccc1O", "classLabel": "false (0)"}
{"compound": "CC(C)(C)c1ccc2c(c1)C(=O)c1ccccc1C2=O", "classLabel": "false (0)"}
{"compound": "CCOC(=O)/C(=C\\c1ccc(F)cc1)C(C)=O", "classLabel": "false (0)"}
{"compound": "O=C(/N=N/C(=O)Oc1ccccc1)Oc1ccccc1", "classLabel": "false (0)"}
{"compound": "O=C1C(=C2CCCC2)CCC1CN1CCCCC1 (centres undefined)", "classLabel": "false (0)"}
{"compound": "CCC[CH2][Ge]([CH2]CCC)([CH2]CCC)[O]C(=O)C(O)c1ccccc1 (centres undefined)", "classLabel": "false (0)"}
{"compound": "CCC(C)COC(=O)Nc1cccc(Cl)c1 (centres undefined)", "classLabel": "false (0)"}
{"compound": "OB(O)c1ccccc1C#Cc1ccccc1", "classLabel": "false (0)"}
{"compound": "COc1cc([C@@H]2c3cc4c(cc3[C@@H](NC(=O)NO)[C@H]3COC(=O)[C@H]23)OCO4)cc(OC)c1O", "classLabel": "false (0)"}
{"compound": "CCCCOc1ccc2nc(C)cc(N=[N+]=[N-])c2c1", "classLabel": "false (0)"}
{"compound": "CC1CN(/N=C\\c2ccc([N+](=O)[O-])o2)C(=O)O1 (centres undefined)", "classLabel": "false (0)"}
{"compound": "CCCNCC(=O)O[C@]1(CC)C(=O)OCc2c1cc1n(c2=O)Cc2cc3ccccc3nc2-1", "classLabel": "false (0)"}
{"compound": "O=C(NC(N1CCN(c2cc3c(cc2F)c(=O)c(C(=O)O)cn3C2CC2)CC1)(C(F)(F)F)C(F)(F)F)c1ccccc1", "classLabel": "false (0)"}
{"compound": "[N-]=[N+]=NC1(c2ccccc2)C(=O)Nc2ccccc2C1=O (centres undefined)", "classLabel": "false (0)"}
{"compound": "CC(C)OC(=O)NNc1cccc(Cl)c1", "classLabel": "false (0)"}
{"compound": "CCN(CC)C(=S)SC(=S)N(CC)CC", "classLabel": "false (0)"}
{"compound": "CCCCCc1c(CCCC)c(=O)[nH]c2cc(CNCC(OC)OC)ccc12", "classLabel": "false (0)"}
{"compound": "O=c1cccccc1[O-].O=c1cccccc1[O-].O=c1cccccc1[O-].[Eu+3]", "classLabel": "false (0)"}
